Measured values drawn from paper PMC12135372 for this set.

Biological target: Dr-tRNA-LC-TR (DDX1 C-term, RTCB, FAM98B, CGI99, ASW N-term) (Danio rerio) (UniProt F1R2L8+Q6NZS4+A0PJS3+Q7ZUH1)
Sequence 1: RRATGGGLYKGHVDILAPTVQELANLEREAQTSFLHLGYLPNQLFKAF
Sequence 2: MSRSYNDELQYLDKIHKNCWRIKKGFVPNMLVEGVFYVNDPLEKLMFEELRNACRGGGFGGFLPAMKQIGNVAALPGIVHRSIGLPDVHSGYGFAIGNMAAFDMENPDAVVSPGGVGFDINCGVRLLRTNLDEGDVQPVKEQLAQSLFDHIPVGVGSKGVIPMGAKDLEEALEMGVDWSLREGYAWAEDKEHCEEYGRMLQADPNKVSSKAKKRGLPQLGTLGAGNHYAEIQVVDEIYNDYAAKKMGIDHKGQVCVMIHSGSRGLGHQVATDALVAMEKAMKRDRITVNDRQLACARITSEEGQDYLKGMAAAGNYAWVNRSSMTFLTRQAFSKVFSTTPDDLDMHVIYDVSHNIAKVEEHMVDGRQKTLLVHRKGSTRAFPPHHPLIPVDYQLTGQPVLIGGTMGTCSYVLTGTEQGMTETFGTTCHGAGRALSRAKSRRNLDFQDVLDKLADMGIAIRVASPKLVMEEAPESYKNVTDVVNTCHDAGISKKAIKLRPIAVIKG
Sequence 3: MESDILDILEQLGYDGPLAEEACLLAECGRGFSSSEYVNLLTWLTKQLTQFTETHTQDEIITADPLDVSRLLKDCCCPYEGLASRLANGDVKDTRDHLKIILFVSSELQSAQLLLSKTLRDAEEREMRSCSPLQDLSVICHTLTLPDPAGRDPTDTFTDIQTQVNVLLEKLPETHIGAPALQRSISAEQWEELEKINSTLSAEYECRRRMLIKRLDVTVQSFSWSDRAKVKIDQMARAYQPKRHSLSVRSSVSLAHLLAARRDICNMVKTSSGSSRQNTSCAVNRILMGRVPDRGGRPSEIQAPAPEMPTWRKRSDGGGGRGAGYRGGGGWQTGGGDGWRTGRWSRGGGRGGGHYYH
Sequence 4: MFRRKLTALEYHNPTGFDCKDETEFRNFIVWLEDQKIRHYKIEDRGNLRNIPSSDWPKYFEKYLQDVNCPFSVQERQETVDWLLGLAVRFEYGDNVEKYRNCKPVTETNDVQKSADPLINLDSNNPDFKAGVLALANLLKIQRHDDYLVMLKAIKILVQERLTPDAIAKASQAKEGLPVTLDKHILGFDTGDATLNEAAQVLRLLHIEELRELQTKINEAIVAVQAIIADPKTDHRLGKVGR
Assay: MST
Conditions: 2 mM GTP, 2 mM MnCl2 (buffer B, implied by text); MST: 25 mM Hepes pH 7.5, 150 mM NaCl, 1 mM DTT, with or without 2 mM GTP and 2 mM MnCl2, 20 nM Cy5-tRNA, temperature not stated; crosslinking: 50 mM Tris pH …
MEASURE NAME: pKd
Here pKd is given on a logarithmic scale as minus log10 of the concentration in mol/L.

Prompt: Consider the sequence shown here: GGCUCCAGUGGCGCAAUCGGUUAGCGCGCGGUACUUAUAAUGCCGAGGUUGUGAGUUCGAGCCUCACCUGGAGCACCA [tRNAIle] What is its recorded pKd?
Response: 7.05
